Target: HLA-A*03:01
Assay: IEDB peptide-MHC binding, purified MHC/competitive/radioactivity; filed as Kd, often an IC50 or EC50 that approximates it; bounds were set here for any values at or beyond the usual limits of such assays
Conditions: source organism: Mammarenavirus tacaribeense

{"SEQUENCE_RECORD": "VCPLGLLLK", "UNIT_OF_MEASURE": "µM", "Kd": 5.83}

---

Target: HLA-B*08:03
Assay: IEDB peptide-MHC binding, purified MHC/direct/fluorescence; filed as Kd, often an IC50 or EC50 that approximates it; bounds were set here for any values at or beyond the usual limits of such assays
Conditions: source organism: Mammarenavirus lassaense
pKd: −log10 of the molar value.

{"SEQUENCE_RECORD": "GYAWIDFDI", "pKd": "≤ 4.70"}

---

Target: HLA-A*03:01
Assay: IEDB peptide-MHC binding, purified MHC/competitive/radioactivity; filed as Kd, often an IC50 or EC50 that approximates it; bounds were set here for any values at or beyond the usual limits of such assays
Conditions: source organism: Vaccinia virus WR
# yes = Kd below 200 nM (exclusive); no = Kd at/above 200 nM

{"SEQUENCE_RECORD": "FLKDDTLSK", "EXPERIMENTAL_TARGET": "HLA-A*03:01", "CLASS_ASSIGNMENT": "no"}
{"SEQUENCE_RECORD": "SVKYYGRSTK", "EXPERIMENTAL_TARGET": "HLA-A*03:01", "CLASS_ASSIGNMENT": "yes"}
{"SEQUENCE_RECORD": "ISDYSAEVER", "EXPERIMENTAL_TARGET": "HLA-A*03:01", "CLASS_ASSIGNMENT": "no"}
{"SEQUENCE_RECORD": "SSMTIREFPR", "EXPERIMENTAL_TARGET": "HLA-A*03:01", "CLASS_ASSIGNMENT": "no"}
{"SEQUENCE_RECORD": "RQILDNAAK", "EXPERIMENTAL_TARGET": "HLA-A*03:01", "CLASS_ASSIGNMENT": "yes"}
{"SEQUENCE_RECORD": "KASMLEKYK", "EXPERIMENTAL_TARGET": "HLA-A*03:01", "CLASS_ASSIGNMENT": "no"}
{"SEQUENCE_RECORD": "HINTLIQYR", "EXPERIMENTAL_TARGET": "HLA-A*03:01", "CLASS_ASSIGNMENT": "yes"}
{"SEQUENCE_RECORD": "VALSSLVSK", "EXPERIMENTAL_TARGET": "HLA-A*03:01", "CLASS_ASSIGNMENT": "no"}
{"SEQUENCE_RECORD": "RLGLVLDDYK", "EXPERIMENTAL_TARGET": "HLA-A*03:01", "CLASS_ASSIGNMENT": "yes"}
{"SEQUENCE_RECORD": "FLEFSNRVY", "EXPERIMENTAL_TARGET": "HLA-A*03:01", "CLASS_ASSIGNMENT": "yes"}
{"SEQUENCE_RECORD": "RVRRYQIAQY", "EXPERIMENTAL_TARGET": "HLA-A*03:01", "CLASS_ASSIGNMENT": "yes"}
{"SEQUENCE_RECORD": "SSLVKNVNK", "EXPERIMENTAL_TARGET": "HLA-A*03:01", "CLASS_ASSIGNMENT": "no"}
{"SEQUENCE_RECORD": "IILAALFMYY", "EXPERIMENTAL_TARGET": "HLA-A*03:01", "CLASS_ASSIGNMENT": "no"}
{"SEQUENCE_RECORD": "PLIDIIRKR", "EXPERIMENTAL_TARGET": "HLA-A*03:01", "CLASS_ASSIGNMENT": "no"}
{"SEQUENCE_RECORD": "LALTDVEKR", "EXPERIMENTAL_TARGET": "HLA-A*03:01", "CLASS_ASSIGNMENT": "no"}
{"SEQUENCE_RECORD": "MIKMFSQIDR", "EXPERIMENTAL_TARGET": "HLA-A*03:01", "CLASS_ASSIGNMENT": "no"}
{"SEQUENCE_RECORD": "VVVQIDPEY", "EXPERIMENTAL_TARGET": "HLA-A*03:01", "CLASS_ASSIGNMENT": "yes"}
{"SEQUENCE_RECORD": "SFIVPEFAK", "EXPERIMENTAL_TARGET": "HLA-A*03:01", "CLASS_ASSIGNMENT": "no"}
{"SEQUENCE_RECORD": "KVKTELVMDK", "EXPERIMENTAL_TARGET": "HLA-A*03:01", "CLASS_ASSIGNMENT": "no"}
{"SEQUENCE_RECORD": "QFIKPVSDLY", "EXPERIMENTAL_TARGET": "HLA-A*03:01", "CLASS_ASSIGNMENT": "no"}
{"SEQUENCE_RECORD": "CAVHLIIYY", "EXPERIMENTAL_TARGET": "HLA-A*03:01", "CLASS_ASSIGNMENT": "no"}
